test-target: T1, human CD3E&G complex (Sino Biological Inc., CT041-H0305H) (human, UniProt P07766 23-126; P09693 23-116)
T1 construct: bought heterodimer; also called human CD3E&G antigen
T1 sequence (P07766 23-126, chain 1 of 2): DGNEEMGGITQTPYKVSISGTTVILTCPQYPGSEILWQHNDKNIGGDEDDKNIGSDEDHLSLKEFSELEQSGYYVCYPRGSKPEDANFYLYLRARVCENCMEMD
T1 sequence (P09693 23-116, chain 2 of 2): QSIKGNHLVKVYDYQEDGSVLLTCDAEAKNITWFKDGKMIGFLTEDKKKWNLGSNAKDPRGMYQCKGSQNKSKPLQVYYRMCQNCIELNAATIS
protocol-details: BLI, antibody on sensor
// reported kon per item

{"columns": ["binder", "kon / M⁻¹ s⁻¹"],
 "data": [
  ["hzsp34.24 (antibody, human IgG1, lambda, L234A L235A, V domains shown, IgG1 L234A L235A, lambda; parent of the CDR mutants) VH: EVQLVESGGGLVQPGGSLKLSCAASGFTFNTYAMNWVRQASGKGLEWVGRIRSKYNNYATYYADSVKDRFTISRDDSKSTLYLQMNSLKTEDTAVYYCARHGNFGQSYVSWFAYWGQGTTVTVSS VL: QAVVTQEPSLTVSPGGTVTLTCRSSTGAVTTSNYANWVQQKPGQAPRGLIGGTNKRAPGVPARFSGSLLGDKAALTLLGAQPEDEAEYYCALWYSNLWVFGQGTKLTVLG", 224000],
  ["hzsp34.93 (antibody, human IgG1, lambda, L234A L235A, V domains shown, CDR mutant of hzsp34.24; IgG1 L234A L235A, lambda) VH: EVQLVESGGGLVQPGGSLKLSCAASGFTFNTYAMNWVRQASGKGLEWVGRIRSKYNNYATYYADSVKDRFTISRDDSKSTLYLQMNSLKTEDTAVYYCARHGNFGQSAVSWFAYWGQGTTVTVSS VL: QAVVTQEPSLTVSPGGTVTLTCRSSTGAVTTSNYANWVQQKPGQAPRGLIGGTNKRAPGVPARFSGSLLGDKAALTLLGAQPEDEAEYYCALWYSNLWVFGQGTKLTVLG", 245000],
  ["hzsp34.114 (antibody, human IgG1, lambda, L234A L235A, V domains shown, CDR mutant of hzsp34.24; IgG1 L234A L235A, lambda) VH: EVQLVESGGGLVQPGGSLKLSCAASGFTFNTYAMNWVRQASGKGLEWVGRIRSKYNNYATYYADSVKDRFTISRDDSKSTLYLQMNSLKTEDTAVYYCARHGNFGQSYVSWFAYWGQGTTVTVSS VL: QAVVTQEPSLTVSPGGTVTLTCRSSTGAVTTSNYANWVQQKPGQAPRGLIGGTNKRAPGVPARFSGSLLGDKAALTLLGAQPEDEAEYYCALWYRGLWVFGQGTKLTVLG", 200000],
  ["hzsp34.108 (antibody, human IgG1, lambda, L234A L235A, V domains shown, CDR mutant of hzsp34.24; IgG1 L234A L235A, lambda) VH: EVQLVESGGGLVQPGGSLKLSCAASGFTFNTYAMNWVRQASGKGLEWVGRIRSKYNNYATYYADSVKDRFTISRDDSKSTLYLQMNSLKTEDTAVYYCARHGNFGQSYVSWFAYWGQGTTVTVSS VL: QAVVTQEPSLTVSPGGTVTLTCRSSTGAVTTSNYANWVQQKPGQAPRGLIGGTNKRAPGVPARFSGSLLGDKAALTLLGAQPEDEAEYYCALWASNLWVFGQGTKLTVLG", 203000],
  ["hzsp34.79 (antibody, human IgG1, lambda, L234A L235A, V domains shown, CDR mutant of hzsp34.24; IgG1 L234A L235A, lambda) VH: EVQLVESGGGLVQPGGSLKLSCAASGFTFNGYAMNWVRQASGKGLEWVGRIRSKYNNYATYYADSVKDRFTISRDDSKSTLYLQMNSLKTEDTAVYYCARHGNFGQSYVSWFAYWGQGTTVTVSS VL: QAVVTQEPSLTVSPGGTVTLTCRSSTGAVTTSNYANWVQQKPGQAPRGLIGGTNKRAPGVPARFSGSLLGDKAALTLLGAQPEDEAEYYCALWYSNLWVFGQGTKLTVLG", 242000]
]}
